# System: P388
# measurement-description: In vivo dose of drug needed for a percentage increase of 50% in life span of tumor-bearing mice compared to untreated controls after inoculation of 10e6 P388 leukemia cells
# Type: functional, Mus musculus
Given measured D50, output label 1 if it is greater than or equal to 10 mg/kg/day and label 0 if not.

Would you please look over these solved cases?
query: Reported D50 reaches at least 10 mg/kg/day for `COP(=O)(Nc1ccc(Nc2c3ccccc3nc3ccccc23)cc1)OC` ?
result: label 1

query: Is D50 for `CS(=O)(=O)Nc1ccc(Nc2c3ccccc3nc3cc(N)ccc23)cc1` at or above 10 mg/kg/day?
result: label 0

query: Is D50 for `COc1cc(NP(=O)(OC)OC)ccc1Nc1c2ccccc2nc2cc(Cl)ccc12` at or above 10 mg/kg/day?
result: label 0

query: Could you verify whether the entry `Cc1cccc2c(Nc3ccc(NS(C)(=O)=O)cc3)c3ccccc3nc12` shows D50 of no less than 10 mg/kg/day?
result: label 1

query: Confirm if D50 reported for the compound `CNC(=O)c1cccc2c(Nc3ccc(NP(=O)(OC)OC)cc3OC)c3ccccc3nc12` is 10 mg/kg/day or above.
result: label 1

Next:
query: Dear colleague, could you confirm whether `COP(=O)(Nc1ccc(Nc2c3ccccc3nc3cc(Br)ccc23)cc1)OC` has D50 at or above 10 mg/kg/day?
result: label 1

###

// reported Activity per item
# Tested on: P388
# measurement-description: In vivo tumor cell selectivity (ILSmax values)for percentage increase in life span of treated animals over that of P388 tumor bearing untreated control animals
# Format: functional, Mus musculus
Give your result in % as a bare value.

Consider the reported Activity for these molecules:
Briefly, Activity measured for `Cc1ccc2c(Nc3ccc(NS(C)(=O)=O)cc3)c3ccccc3nc2c1` : 73

Consider `Cc1cccc2c(Nc3ccc(NS(C)(=O)=O)cc3)c3ccccc3nc12` . Its measured Activity is 75

For record `COc1cc(NP(=O)(OC)OC)ccc1Nc1c2ccccc2nc2ccccc12` the listed Activity is 67

Next:
Reported Activity for `COc1ccc2nc3ccccc3c(Nc3ccc(NP(=O)(OC)OC)cc3)c2c1` was 38

Reported Activity for `COP(=O)(Nc1ccc(Nc2c3ccccc3nc3cc(N)ccc23)cc1)OC` was 58

Per the record, `COc1cc(NP(=O)(OC)OC)ccc1Nc1c2ccccc2nc2ccc(C)cc12` has Activity of 25

Activity reading for `CS(=O)(=O)Nc1ccc(Nc2c3ccccc3nc3cc(Br)ccc23)cc1` : 33

Short answer for `COc1cc(NP(=O)(OC)OC)ccc1Nc1c2ccccc2nc2cc(Br)ccc12` : Activity was 83

Sample `COc1cc(NP(=O)(OC)OC)ccc1Nc1c2ccccc2nc2c(OC)cccc12` ; Activity observed: 76

// field: Activity; key: `COc1cc(NS(C)(=O)=O)ccc1Nc1c2ccccc2nc2c(OC)cccc12` ; value = 139

###

List of log10 D50 values.
# Test system: P388
# measurement-description: In vivo dose of drug needed for a percentage increase of 50% in life span of tumor-bearing mice compared to untreated controls after inoculation of 10e6 P388 leukemia cells
# Type: functional, Mus musculus
Kindly note that the scale is log10 and the underlying D50 is in mg/kg/day.

Below, 4 compounds whose answers are already recorded.
The recorded log10 D50 for `COc1cc(NS(C)(=O)=O)ccc1Nc1c2ccccc2nc2cc(Br)ccc12` is 0.60

For record `COP(=O)(Nc1ccc(Nc2c3ccccc3nc3cc(N)ccc23)cc1)OC` the listed log10 D50 is 0.70

The recorded log10 D50 for entry `Cc1ccc2c(Nc3ccc(NS(C)(=O)=O)cc3)c3ccccc3nc2c1` equals 1.43

Reported log10 D50 ( `COc1cccc2c(Nc3ccc(NP(=O)(OC)OC)cc3)c3ccccc3nc12` ) = 1.65

Continuing:
Notebook: `COc1cc(NP(=O)(OC)OC)ccc1Nc1c2ccccc2nc2ccccc12` , log10 D50 read as 0.54

Form: compound = `CNC(=O)c1cccc2c(Nc3ccc(NP(=O)(OC)OC)cc3)c3ccccc3nc12` ; log10 D50 = 1.78

The measured log10 D50 associated with `COc1cc(NS(C)(=O)=O)ccc1Nc1c2ccccc2nc2c(C)cccc12` reads 0.60

# log10 D50 (compound: `CS(=O)(=O)Nc1ccc(Nc2c3ccccc3nc3ccccc23)cc1` ) is 1.54

Reported log10 D50 for `CNC(=O)c1cccc2c(Nc3ccc(NS(C)(=O)=O)cc3OC)c3ccccc3nc12` was 0.90

So, COc1cc(NS(C)(=O)=O)ccc1Nc1c2ccccc2nc2ccccc12 [AMSACRINE] ? Its log10 D50 was 0.48

###

# measurement-description: Lipophilicity (Rm) (liquid chromatography)
# Type: physicochemical
The reader will find reported Rm values listed item by item below.
Reply: number alone, nothing else.

Looking up `COP(=O)(Nc1ccc(Nc2c3ccccc3nc3ccccc23)cc1)OC` , I found its Rm recorded as 0.34

What the record says about `CS(=O)(=O)Nc1ccc(Nc2c3ccccc3nc3ccccc23)cc1` : Rm is 0

Form: molecule = `COP(=O)(Nc1ccc(Nc2c3ccccc3nc3ccc(C)cc23)cc1)OC` ; Rm = 0.43

***
Kindly note the recorded Rm for `CS(=O)(=O)Nc1ccc(Nc2c3ccccc3nc3cc(Cl)ccc23)cc1` , which is 0.14

Record `CS(=O)(=O)Nc1ccc(Nc2c3ccccc3nc3ccc(Cl)cc23)cc1` , field Rm: 0.15

The recorded Rm for `CS(=O)(=O)Nc1ccc(Nc2c3ccccc3nc3cc(S(C)(=O)=O)ccc23)cc1` is -0.2

molecule `COc1cc(NP(=O)(OC)OC)ccc1Nc1c2ccccc2nc2cc(Cl)ccc12` , Rm observed: 0.61

Entry `COc1cc(NP(=O)(OC)OC)ccc1Nc1c2ccccc2nc2c(C)cccc12` ; Rm = 0.44

Short answer for `COc1cc(NS(C)(=O)=O)ccc1Nc1c2ccccc2nc2c(OC)cccc12` : Rm was 0.19

The molecule listed as `CNC(=O)c1cccc2c(Nc3ccc(NS(C)(=O)=O)cc3OC)c3ccccc3nc12` shows Rm equal to 0.06

Recorded Rm (molecule `COc1ccc2nc3ccccc3c(Nc3ccc(NP(=O)(OC)OC)cc3)c2c1` ): 0.29

###

Listed compounds paired with reported D50
# System: P388
# measurement-description: In vivo dose of drug needed for a percentage increase of 50% in life span of tumor-bearing mice compared to untreated controls after inoculation of 10e6 P388 leukemia cells
# Assay type: functional, Mus musculus
Give just the number in mg/kg/day; leave the unit off.

Consider the worked cases shown below.
So, `COP(=O)(Nc1ccc(Nc2c3ccccc3nc3cc(C)ccc23)cc1)OC` ? Its D50 was 6

Record `CS(=O)(=O)Nc1ccc(Nc2c3ccccc3nc3cc(Cl)ccc23)cc1` . Reported D50: 60

Entry `COc1cc(NP(=O)(OC)OC)ccc1Nc1c2ccccc2nc2c(OC)cccc12` , D50 reported as 6

Entry `COc1cc(NP(=O)(OC)OC)ccc1Nc1c2ccccc2nc2c(C)cccc12` , D50 reported as 3

# D50 (compound: `COc1cc(NP(=O)(OC)OC)ccc1Nc1c2ccccc2nc2cc(Br)ccc12` ) is 4

***
Recorded result, `COc1cc(NS(C)(=O)=O)ccc1Nc1c2ccccc2nc2c(OC)cccc12` , D50: 8

response.value for `COc1cccc2c(Nc3ccc(NS(C)(=O)=O)cc3)c3ccccc3nc12` (field: D50) = 125

compound `COP(=O)(Nc1ccc(Nc2c3ccccc3nc3c(C)cccc23)cc1)OC` , D50 observed: 9

For reference, reported D50 for `COP(=O)(Nc1ccc(Nc2c3ccccc3nc3cc(Cl)ccc23)cc1)OC` stands at 35

###

Recorded Rm, one value per entry.
# measurement-description: Lipophilicity (Rm) (liquid chromatography)
# Format: physicochemical
The response must contain the number and no unit.

Consider the reported Rm for these compounds:
Reported Rm ( `COc1cc(NP(=O)(OC)OC)ccc1Nc1c2ccccc2nc2c(OC)cccc12` ) = 0.47

`Cc1ccc2c(Nc3ccc(NS(C)(=O)=O)cc3)c3ccccc3nc2c1` yielded Rm of 0.24

Rm measured on `COc1cc(NP(=O)(OC)OC)ccc1Nc1c2ccccc2nc2ccc(C)cc12` = 0.55

Others:
# Rm (compound: `COc1cc(NS(C)(=O)=O)ccc1Nc1c2ccccc2nc2cc(Br)ccc12` ) is 0.34

In plain terms, `Cc1ccc2nc3ccccc3c(Nc3ccc(NS(C)(=O)=O)cc3)c2c1` has a documented Rm of 0.14

Notebook: `COP(=O)(Nc1ccc(Nc2c3ccccc3nc3cc([N+](=O)[O-])ccc23)cc1)OC` , Rm read as 0.14

Sure, the documented Rm for `CNC(=O)c1cccc2c(Nc3ccc(NS(C)(=O)=O)cc3)c3ccccc3nc12` is -0.1

###

Each entry below lists one item and its recorded Rm value.
# measurement-description: Lipophilicity (Rm) (liquid chromatography)
# Assay type: physicochemical
Could you keep your reply to the number by itself?

Rm recorded for this compound, `COP(=O)(Nc1ccc(Nc2c3ccccc3nc3cc(Cl)ccc23)cc1)OC` , is 0.46

New cases:
Value of measured Rm for the entry `COP(=O)(Nc1ccc(Nc2c3ccccc3nc3cc(C)ccc23)cc1)OC` : 0.49

// recorded Rm for `COc1cc(NS(C)(=O)=O)ccc1Nc1c2ccccc2nc2ccccc12` : 0.18

Form: compound = `COc1cccc2c(Nc3ccc(NS(C)(=O)=O)cc3)c3ccccc3nc12` ; Rm = 0.01

The reported value for `COc1cccc2c(Nc3ccc(NP(=O)(OC)OC)cc3)c3ccccc3nc12` in terms of Rm is 0.33

The reported value for `COc1ccc2nc3ccccc3c(Nc3ccc(NS(C)(=O)=O)cc3)c2c1` in terms of Rm is -0.04
